Recorded values, source patent US20020035061A1.

- Test system: MSSA (Smith, ATCC # 19640)
- PROCEDURE TEXT: In vivo efficacy, MSSA infection
- Design: species or system S. aureus
- TEST CONDITIONS: 24 mg/kg ip, formulation D, 60 min post-infection; end of eight day observation
# strict inequality: % Survival < 60% yields TRUE, everything else yields FALSE

Completed entries (count: 3):
| SEQUENCE CODE | CLASS ASSIGNMENT |
| --- | --- |
| ILKKWVWWPWRRK [MBI 11F3CN] | FALSE |
| ILKKWPWWPWRRK [MBI 11CN] | TRUE |
| ILKKWWWPWRRK [MBI 11G4CN] | TRUE |

# input Threshold test, % Survival < 60%: ILKKFPFFPFRRK [MBI 11A1CN]
# output TRUE

# input Threshold test, % Survival < 60%: IKKWPWWPWRRK [MBI 11G2CN]
# output TRUE

# input Threshold test, % Survival < 60%: ILRRWPWWPWRRK [MBI 11B1CN]
# output FALSE

---

- Tested on: bacterial isolates
- PROCEDURE TEXT: microbe, parasite or virus in culture
- Type: cell-based
- TEST CONDITIONS: S. aureus 19 MRSA; Piperacillin section
Form field: Peptide MIC Alone (one value per entry).
The reply should be a number in µg/mL, with the unit left off.

Reference set (5 entries):
| SEQUENCE CODE | SYSTEM TESTED | Peptide MIC Alone [µg/mL] |
| --- | --- | --- |
| KWKSFIKKLTSAAKKVVTTAKPLISS [MBI 26] | bacterial isolates | 32 |
| ILKKWVWWPWRRK [MBI 11F3CN] | bacterial isolates | 4 |
| ILRRVJPWWPWRRR [MBI 11B9CN] | bacterial isolates | 4 |
| ILKKWPWWPWRRK [MBI 11E3CN] | bacterial isolates | 4 |
| ILKKWPWWPWRR [MBI 11G7CN] | bacterial isolates | 8 |

# input Please give the documented Peptide MIC Alone of ILRWVWWVWRRK [MBI 11F4CN]
# output 4

# input Please give the documented Peptide MIC Alone of ILKKWPWWPWRRK [MBI 11CN]
# output 8

# input Please give the documented Peptide MIC Alone of ILRWPWWPWRRK [MBI 11B7CN]
# output 4

---

Form field: LC50 ± S.E., P388 (one value per entry).
- Tested on: P388, lymphocytic leukemia
- PROCEDURE TEXT: Cell death by Cytotox (Promega) lactate dehydrogenase release
- Format: cell-based
- TEST CONDITIONS: LDH release
The reply should be a number in µg/mL, with the unit left off.

| SEQUENCE CODE | UNIT | VALUE |
| --- | --- | --- |
| ILKKWPWWPWRRK [MBI 11CN] | µg/mL | 30 |

# input Please give the documented LC50 ± S.E., P388 of ILRWPWWPWRRK [MBI 11B7CN]
# output 13.8

# input Please give the documented LC50 ± S.E., P388 of ILKKWPWWPWRRK [MBI 11E3CN]
# output 13.9

---

- Test system: A. calcoaceticus
- Format: cell-based
- TEST CONDITIONS: A. calcoaceticus AC001
Form field: MIC (one value per entry).
The reply should be a number in mg/L, with the unit left off.

| SEQUENCE CODE | SYSTEM TESTED | MIC, mg/L |
| --- | --- | --- |
| ILPWKWPWWPWRR [MBI 10CN] | A. calcoaceticus | 64 |
| ILKKWPWWPWRRK [MBI 11CN] | A. calcoaceticus | 128 |

Now look at this one.
# input Please give the documented MIC of ILPWKWPWWPWRR [MBI 10]
# output 128
